Each recorded value in this set is attributed to ChEMBL document CHEMBL4513216.

# Tested on: Plasmodium berghei
# assay.procedure: Screen against P. berghei liver stage (PbLuc), transformed with Luciferase, at 10uM
# Format: functional, HepG2
# condition.context: tested at 10 uM
Hit rate of the full screen: of about 69,000 compounds, about 8,600 (12%) showed an effect of 50% or more. For the sample, strong results were picked, then their nearest neighbours and some compounds at random.
# binning rule on INHIBITION: 1: < 30%; 2: ≥ 30% and < 40%; 3: ≥ 40%

1) O=C1CCCCCN1Cc1ncnn1Cc1c(F)cccc1Cl ... 1

Input line: Which category fits this record: CC(C(=O)NCc1ccnc(N2CCCC2)c1)n1cccn1 (stereo not drawn)
Output line: 1

Input line: # bin label for Cc1nc2cc(OCc3nc(C(=O)NC(C)(CO)CO)co3)ccc2s1
Output line: 3

Input line: For this compound, which bin applies? CCS(=O)(=O)c1ncc(CN2CCCC2)n1CCc1ccccc1
Output line: 1

Input line: Category of CN(C)C(=O)c1ccc(C2CCCNC2)nc1 (stereo not drawn) :
Output line: 1

* * *

# System: Plasmodium berghei
# assay.procedure: Screen against P. berghei liver stage (PbLuc), transformed with Luciferase, at 10uM
# Assay type: functional, HepG2
# condition.context: tested at 10 uM
Hit rate of the full screen: of about 69,000 compounds, about 8,600 (12%) showed an effect of 50% or more. The full list was thinned out, with strong results kept by preference.
measured.quantity: INHIBITION

Answered cases to consult:
1) Cn1cc(CN(Cc2ccccn2)Cc2ccccc2Cl)cn1 ... -10.4%
2) CC(C)(CCS(C)(=O)=O)CNC(=O)NC1CCCC1(C)C (stereo unspecified) ... -21.9%
3) CC(C)(C)n1nnnc1CN(Cc1ccccc1)Cc1ccccc1Cl ... 91.6%
4) Cc1noc(-c2ccc(N3CCCC(C(=O)O)C3)nc2)n1 (stereo unspecified) ... -19.2%
5) CC(C)(C)n1nnnc1CN(CCc1ccccc1)Cc1ccccc1 ... 65.7%

Turning now to a further compound:
Input line: Item under review: CC(C)N(C(=O)Cn1nnnc1CCc1ccccc1)C(C)C . Reported INHIBITION?
Output line: 37.7%

* * *

# Tested on: Plasmodium berghei
# assay.procedure: Screen against P. berghei liver stage (PbLuc), transformed with Luciferase, at 10uM
# Assay type: functional, HepG2
# condition.context: tested at 10 uM
Among all 69,000 compounds or so, about 8,600 (12%) showed an effect of 50% or more. This is one part of a sample in which strong results are shown more often than they occur.
measured.quantity: INHIBITION (%)
Field: numeric (%). Do not append units.

As a guide, the following entries are already answered.
1) CC(C)(C)C(=O)CN1CCc2ccccc2NCCC1=O ... 15.4
2) CCc1ccc(S(=O)(=O)Nc2cn(C)cc(Br)c2=O)cc1 ... 25.3
3) O=C(NCc1cncc2c1CCN(C1CCOCC1)C2)c1ccco1 ... 61.3
4) CN(CCCc1cnn(C)c1)c1nccc(-c2cc(C(=O)O)ccn2)n1 ... 21.2
5) CNC(=O)C1CNCCN1C(=O)c1ccc(C(F)(F)F)nc1C (stereo unspecified) ... -15.3

Input line: Look up INHIBITION for this molecule: COCCn1cc2c(n1)C(CNS(C)(=O)=O)OCC2 (stereo unspecified)
Output line: -31

Input line: Dear colleague, I am looking for the recorded INHIBITION of the following molecule: O=C(NCc1cncc2c1CCN(C1CCOC1)C2)c1ccco1 (stereo unspecified)
Output line: 0.71
